# test.system: T1, TIGIT (human)
# T1 chain: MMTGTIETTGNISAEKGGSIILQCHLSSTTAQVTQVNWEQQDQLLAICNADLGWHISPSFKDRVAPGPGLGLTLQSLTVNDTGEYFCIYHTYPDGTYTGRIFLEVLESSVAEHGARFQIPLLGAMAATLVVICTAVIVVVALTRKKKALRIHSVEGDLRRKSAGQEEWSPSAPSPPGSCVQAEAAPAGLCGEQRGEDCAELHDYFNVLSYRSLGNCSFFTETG
# assay.name: cell-based or functional assay
experimental.endpoint: IL-2 luciferase reporter, Normalized Fold Change from CD155-ECD, proteins at 50 nM (fold)
State just the number; it will be interpreted in fold.

q: Entry variant CD155 IgV-Fc P18T, S52P, S65A, S67V, L79P, F91S, L104M, G111R (Fc fusion) WPPPGTGDVVVQAPTQVTGFLGDSVTLPCYLQVPNMEVTHVSQLTWARHGEPGSMAVFHQTQGPAYVESKRLEFVAARPGAELRNASLRMSGLRVEDEGNYTCMFVTFPQRSRSVDIWLRVLGSGGGGSEPKSSDKTHTCPPCPAPEAEGAPSVFLFPPKPKDTLMISRTPEVTCVVVDVSHEDPEVKFNWYVDGVEVHNAKTKPREEQYNSTYRVVSVLTVLHQDWLNGKEYKCKVSNKALPAPIEKTISKAKGQPREPQVYTLPPSRDELTKNQVSLTCLVKGFYPSDIAVEWESNGQPENNYKTTPPVLDSDGSFFLYSKLTVDKSRWQQGNVFSCSVMHEALHNHYTQKSLSLSPGK has what IL-2 luciferase reporter, Normalized Fold Change from CD155-ECD, proteins at 50 nM?
a: 3.6
